Measured EC50, listed per entry for reference.
- TESTED SYSTEM: human TLR8 (Homo sapiens, UniProt Q9NR97)
- Sequence (Q9NR97 27-1041): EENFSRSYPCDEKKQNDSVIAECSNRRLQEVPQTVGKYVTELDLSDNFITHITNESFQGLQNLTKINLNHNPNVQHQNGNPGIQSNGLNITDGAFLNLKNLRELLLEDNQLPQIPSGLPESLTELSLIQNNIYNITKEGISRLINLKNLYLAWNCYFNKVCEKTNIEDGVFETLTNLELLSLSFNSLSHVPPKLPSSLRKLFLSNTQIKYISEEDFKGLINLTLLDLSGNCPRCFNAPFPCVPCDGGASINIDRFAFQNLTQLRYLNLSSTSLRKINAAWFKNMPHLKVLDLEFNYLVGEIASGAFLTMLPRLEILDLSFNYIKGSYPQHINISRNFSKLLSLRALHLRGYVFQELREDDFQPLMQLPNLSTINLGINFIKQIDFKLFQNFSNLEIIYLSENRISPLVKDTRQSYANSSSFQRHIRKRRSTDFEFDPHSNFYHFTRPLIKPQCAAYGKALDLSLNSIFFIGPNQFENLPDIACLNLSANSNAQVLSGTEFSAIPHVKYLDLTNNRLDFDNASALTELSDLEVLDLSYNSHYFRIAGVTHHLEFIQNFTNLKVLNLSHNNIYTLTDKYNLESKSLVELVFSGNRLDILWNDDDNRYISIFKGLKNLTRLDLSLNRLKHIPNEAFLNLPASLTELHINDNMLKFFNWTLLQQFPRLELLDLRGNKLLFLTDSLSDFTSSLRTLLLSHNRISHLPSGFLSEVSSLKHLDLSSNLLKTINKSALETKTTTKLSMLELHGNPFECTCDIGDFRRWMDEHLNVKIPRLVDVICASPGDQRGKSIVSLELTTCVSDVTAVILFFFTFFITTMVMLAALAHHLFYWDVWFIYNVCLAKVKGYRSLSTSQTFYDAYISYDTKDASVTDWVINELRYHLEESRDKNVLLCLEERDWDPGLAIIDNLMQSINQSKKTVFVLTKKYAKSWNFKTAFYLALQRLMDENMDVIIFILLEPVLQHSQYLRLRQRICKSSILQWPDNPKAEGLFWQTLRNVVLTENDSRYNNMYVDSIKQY
- PROCEDURE SUMMARY: HEK-Blue human TLR8 cells NF-κB SEAP reporter assay
- ASSAY CONDITIONS: stimulation for 20 hours, Quanti Blue 640 nm
Just the number in nM, nothing appended.

CCCN(CCC)C(=O)C1=Cc2ccc(C(=O)NC3CCC(CNc4ccccc4)CC3)cc2N=C(N)C1 (centres unmarked) [Example 26] :: 9
CCCN(CCC)C(=O)C1=Cc2ccc(C(=O)NC3(c4ccccc4)CC3)cc2N=C(N)C1 [Example 5] :: 6
CCCN(CCC)C(=O)C1=Cc2ccc(C(=O)NC3CCCC3)cc2N=C(N)C1 [Example 15] :: 14
CCCN(CCC)C(=O)C1=Cc2ccc(C(=O)NC3CCC3)cc2N=C(N)C1 [Example 17] :: 25

## Input Look up EC50: CCCN(CCC)C(=O)C1=Cc2ccc(C(=O)NC(C)(C)c3ccccc3)cc2N=C(N)C1 [Example 13]
## Output 11

## Input For CCCN(CCC)C(=O)C1=Cc2ccc(C(=O)NC3CN(c4ccccc4)C3)cc2N=C(N)C1 [Example 3] then?
## Output 4

## Input For CCCN(CCC)C(=O)C1=Cc2ccc(C(=O)N[C@H](C)c3ccccc3)cc2N=C(N)C1 [Example 14] then?
## Output 12

## Input For CCCN(CC1CC1)C(=O)C1=Cc2ccc(C(=O)NC3C[C@H]3c3ccccc3)cc2N=C(N)C1 (some centres unmarked) [Example 22] then?
## Output 5
